- test_name: soluble on expression in E. coli; label from the status in PepcDB or PDB records

- monomer_sequence: "MLGFNGERLDPASGAFHLGNGYRAYSPALMRFHCPDSLSPFGASGVNPYAYCAGDPANRADPSGHLSWQAWTGIGLAVASLALAAFTAGTSIIASGGIVAALESASAITLAEGGLAVVSDMTAIACGAMEASDPQAAAALSWVSLACGAMGMVHAGYGAVRGIDRKLGAFLQENSRFLGKITRGERDSLGIPLGGGLTKCFRPASEMEGASAGIALGRLHRSSSTPDMEAFLALPAAKRKRIGSGVSGVVYEAGRGWVVKIAIDPLPIETMEREAEIFRAVHGPRSALVAENMLWMKRIPGVPVNTLNLLADEKAEMWQKTLAEVKRLQEMGIHHGDPSWNNLLFDQQTGTVSFIDFGKSRYLDGFAPATLEHHHHHH"
  soluble on expression in E. coli: "soluble"
- monomer_sequence: "ASMTGGQQMGRDPGMTVTSQVKPEDEMDNWGRLILDGVSYSDMVGARDRPKEITWFDYWMSLANEYEQEAERKVALGHDLSAGELLMSAALCAQYAQFLWFDERRQKGQARKVELYQKAAPLLSPPAERHELVVDGIPMPVYVRIPEGPGPHPAVIMLGGLESTKEESFQMENLVLDRGMATATFDGPGQGEMFEYKRIAGDYEKYTSAVVDLLTKLEAIRNDAIGVLGRSLGGNYALKSAACEPRLAACISWGGFSDLDYWDLETPLTKESWKYVSKVDTLEEARLHVHAALETRDVLSQIACPTYILHGVHDEVPLSFVDTVLELVPAEHLNLVVEKDGDHCCHNLGIRPRLEMADWLYDVLVAGKKVAPTMKGWPLEHHHHHH"
  soluble on expression in E. coli: "soluble"

====

- test_name: soluble on expression in E. coli; label from the status in PepcDB or PDB records
measure: soluble on expression in E. coli

Some sequences with known soluble on expression in E. coli results, for comparison:
- monomer_sequence: "MSSLLTIALAVTISCVNTVEDQYFGGQNAEPVAKVEQKATSNNTLADLEKDPLYPYIDKQNKLVEKNGIQYIENEENILVLANKDYSLQPTYTPPDLVRPNVTFSFGNEQVEKAQLRKEAGTALEEMFKAANQDGKKLFAVSGYRSYKRQQEVFQAEVNSKGDKKAREAVAYPGTSEHQTGLAMDISSENQSYELTEAFGTTPEGKWLEENAHNYGFILRYMKGREDITKYQYESWHYRYVGKDAATIIYKNNWTLEEFFEHVKALQKKVDAAK"
  measure: "soluble on expression in E. coli"
  result: "not soluble"
- monomer_sequence: "MGSDKIHHHHHHMRTVYAIVVNYNNFDDTAECIDSLLNQTYPCRVVVVDNGSEREVIEKLRRKYPQVEMLELGENRGYAGGCNAGIRAVIDKADYVLISNNDVVFERDAVERMVSEMEEDETIAACQPVVKYYGDERIWSAGTRIFLGYPVLHLKNKMVEVEISFDSPFGLVGCAMLIRSSALKDVGFFDEELFMMHEETEWCIRARKKGYRLAVCKAVVRHKVSASLGLFSPHYLYYTARNWLIVARRAGKAMFFYALITEPLRVLYYLVRLKRKGDIIQYLKGVVHGILSRKGRRC"
  measure: "soluble on expression in E. coli"
  result: "not soluble"
- monomer_sequence: "MGHHHHHHSHMGVPYSVLEPVLERCTPDQLYRIEEYNHVLIEETDQLWKVHCHRDFKEERPEEYESWREMYLRLQDAREQRLRVLTKNIQFAHANKP"
  measure: "soluble on expression in E. coli"
  result: "soluble"
- monomer_sequence: "MYTEYQPSRLLAPYIDNYWEFKGTPEYGMRIHILPDGCTDFIFTLGEAVSKVKEETLVMQPYRSYFVGPMTKYSELVTYAEFVHQFGVRFLPCGLSGFTKLPLHEFANYRISTNEMQAVFDSTFIERLCEQNDVRGRIQVVEEYLLAYLAHNYQPVDTQVAAAVNIINQSAGKRSVRSLMDEVCLCQRHFERKFKHNTGFTPKEYSRIVKFKNAVELLRNTTSVNLLTTAIDAGYYDLAHFSKEIKTLSGNTPSSFLSLTVPEDITLTYIEP"
  measure: "soluble on expression in E. coli"
  result: "soluble"
- monomer_sequence: "MQSISNCPIGLVSKNTINSASTIAEWVACPWKYINVVGSGRYVSNKPDKITRYDLLKAAQEAEMQELLTRNDMKGRHKRNKKSKIALETIAEENSSTESLF"
  measure: "soluble on expression in E. coli"
  result: "not soluble"

Find the recorded soluble on expression in E. coli belonging to MAHHHHHHMPGASDRGTAYVSCRIHCLPACFSRAVVAVCKLTSPAPGIPPLVSLCRYGLPGYSAQEGEAFSAAASGLHPRHQLPFVLSRVAASKAIASLSPDKRAACPGEEDGPAVVFTDRREAAPTLHGCCLSIAHEDSAAASVAWSVPSPDSSSFKDYHAAPERLYMEAQLVCSHSTLPDATATSFAYAIDVVNVAEVHRVRSRFPHFGQRWMPQCTTTASADDVGRALTCVQKQHQECVAAVGAPGGSHGGEGVSACQAACRRDEWWKHLVTPYVTEADAYAAVVLAQHWGVRECAVKLVGIPGRSFAYECVRALPPRGGAVVTESTPFTASFLMSHTLYSAEVHGAEAATLAQQRLHPLLYLYTWTEWVPLNSTVDLPYVVVLACAPCRSDAR and report it.
not soluble

Form field: reported soluble on expression in E. coli of MGSDKIHHHHHHMSLLVKAYRYGYTIARVTPASACWRYVGFAAYRLGTAEVVHVHEPSREVCIVVLTGTVDIETADTTWRSLGSRDSVFEDAAPYAVYLPPNVRATVRACRDAEIGVASAPARGGYPARLIEPASMKRSTRGKGLNTRYVCDILPQTEPAESLLVVEVRTPGGHASSYPPHKHDTDNVPQESSLEETYYHRLDPPQGFAFQRVYTDMRDIDESMAVEDHDVVMVPRGYHPVVVPYGYDSYYLNVMAGGKRVWHFRNDPAHEWIINKDA
not soluble

Value lookup for soluble on expression in E. coli; key = MSLEINKGEGAVLGKEFFCEEEPGYLIEEEEEKELLEFISSGNLEIDRRLEGGIPAGSLCLLEGANDSGKSIFLQQIIWGALNQDKTVLFLTTEKTSKEVLNQMESLKRGISDYFIIGRSKIFEINAGYVEENPRLSESLLQVLLECIQRCEEELVLIDSLTIFAVNASENAVLNFFTECVKLCDRGKTILISVHGYAFSQAVLYRLRSVCSACLELRIEQVGDQWVKTMEIQKLRGARKTTGNLLSFDVDSEFGLKIIPVSKIKAEGHHHHHH
soluble

Request the reported soluble on expression in E. coli associated with LTSSNALRGDAHSRLAAHRGLLERTSRTTRVAGILRDAIIDGTFRPGARLSEPDICAALDVSRNTVREAFQILIEDRLVAHELNRGVFVRVPTAEDITELYICRRVVECAGVNGFDPATGDLSRVAEALDLADERYAVEDWTGVGTADIHFHSALASLNNSNRIDELMRSVWNEARLVFHVMDDAHRFHGPYLTRNHEIYDALAAGNTEAAGQLLKTYLEDAEAQILGAYRPVSG
soluble

Suppose we examine the sequence MARTVDLELEAQIDILRDNNKKYENILKLAQTLSTQLFQMVHTQKQLGDAFADLSLKSLELHEKFGYNADTQKLLAKNGETLLGAINFFIASVNTLVNKTIEDTLMTVKQYENARVEYDAYRTDLEELNLGPRDANTLPKIEQSQHLFQIHKEKYDKMRSDVSVKLKFLEENKVKVLRNQLVLFHSAVAAYFAGNQKQLELTLKQFHVRLKTPGVDAPSWLEEQ ; what soluble on expression in E. coli value has been reported?
soluble

Quick check: soluble on expression in E. coli of MLRMDLQTYQKIYSSLHNFGDVFRLSEEYSRPAGMLATILNQKIVKMTRFKHRRVYSREKELFMKWKQGRSILELAEYTYFPPTLMASLILKNCDFSRKSINWLFKHLDCIENRRLRKEVRKALNADYFFSPRAHEMQCRKGEMGEEIVRKWLDDREIAYCTEAEIRAKGDGKTPDFVLSNPIFIEDHMVSWIESKALFGDDFEHKHYAKKQFREYADIFGEGMVVYWYGFLEDLSSEDEGYLIKDYRFFEGYQEQTDELFNYLVYWLEHHHHHH ?
not soluble

====

- test_name: soluble on expression in E. coli; label from the status in PepcDB or PDB records
measure: soluble on expression in E. coli

Recorded results for 6 sequences are shown here.
- monomer_sequence: "MAHHHHHHSLEYNLTTTDVVMENVTAFWEEGFSKLFEKAKENNNNRKISNCDTSLFFSNLLLGTPVLKDISFKIERGQLLAVAGSTGAGKTSLLMMIMGELEPSEGKIKHSGRISFCSQYSWIMPGTIKDNIIFGVSYDEYRYRSVIKACQLEEDISKFSEKDNIVLGEGGITLSGGQRARISLARAVYKDADLYLLDSPFGYLDVLTEKEIFESCVCKLMANKTRILVTSKMEHLKKADKILILHEGSVYFYGTFSELQNQRPDFSSKLMGCDTFDQFTAERRNSIITETLRRFSLEGDTSV"
  soluble on expression in E. coli: "soluble"
- monomer_sequence: "MAHHHHHHMLKKGFTATKIIGKRCFQWWDNLNTSWKFAIGFSVLFPPLWNYNERRKAREKQVYYNKSIKDYVFFDIAIENKYVGRVLIGLYSDQVPLSVENFIQLAEGYKVKDKYIGYRNTFIHKIYPGIGLVGGNVLNDKEGLSIYGKKFPDENFDMEFVQDGDVALFNEGPHSNSSQFIITFSPMPILHKHNVVIGTVLKGMDIIRMIENVGTKLGNPMYNVKIINCGLYRSLEQDGPPFFNMLHISDKGNKNIISKKEFENLSEQQRQSLMEEIGKSEKQR"
  soluble on expression in E. coli: "not soluble"
- monomer_sequence: "SVHKPSGQIMAVKRIRSTVDEKEQKQLLMDLDVVMRSSDCPYIVQFYGALFREGDCWICMELMSTSFDKFYKYVYSVLDDVIPEEILGKITLATVKALNHLKENLKIIHRDIKPSNILLDRSGNIKLCDFGISGQLVDSIAKTRDAGCRPYMAPERIDPSASRQGYDVRSDVWSLGITLYELATGRFPYPKWNSVFDQLTQVVKGDPPQLSNSEEREFSPSFINFVNLCLTKDESKRPKYKELLKHPFILMYEERTVEVACYVCKILDQMPATPSSPMYVD"
  soluble on expression in E. coli: "soluble"
- monomer_sequence: "MTMETVESQHDGSITASLTESKSAHVQTQTGQNSIPALAQVAAIAETDESAESGGVIDSHKRREILSRRPSYRKILNELSSDVPGVPKIEEERSEEEGTPPSIATMAVPTSIYQTSTGQYIAIAQGGTIQISNPGSDGVQGLQALTMTNSGAPPPGATIVQYAAQSADGTQQFFVPGSQVVVQAATGDMPTYQIRAPTAALPQGVVMAASPGSLHSPQQLAEEATRKRELRLMKNREAAKECRRRKKE"
  soluble on expression in E. coli: "soluble"
- monomer_sequence: "GPGSMWGPNQEVAHPRHDGKSFYLPSTSAAGAAALGASLLPHSNLVCAPLNPHIAREPVDTATGDGDGTVRALLTRFRIENERLRDQVKAHVVQEALLTQRLQELSARNTALHLQDFRKRDNDAVVEKLKKQLEVKEMEVRALQLQVGELNGRISAYEEAISRPDHPQGLSANSMDRVRELICEALSSAGFLTRVANAVEHCHPSTHEVTDCPRSVEECTNHCLQAAMRGNKELPGETAARGHHVSCEELASALREEVLFCETVAVRVAAKLFMERSSADSSAKADRGTGLQHQEESAPPLARPTAECPAEAHELPQSDRRPRRKPAARPTVEDCEVQ"
  soluble on expression in E. coli: "not soluble"
- monomer_sequence: "MAENKTINKEQNRTENNEIVIMNFSGIYKEQQFYRNHAEMQEDISWLEVQDLPGSNCYCDEEAKNRILDDIKNYTGNGIHFIDSGNYHYVSRLWLSKMEHPFRLLVFDNHTDMQLPAFGGLLSCGGWIAASLEEVPMLQEVILVGPDEEAYMQVEPEFQQKVQFLSREKLLAMTGEEKNTFFRNLRADLPMYISVDKDVLCTADASTTWSQGDMSLEKLQKFLEIVLQQQQILGMDICGECDPDACERNLLNDRANQKLLELWKKYFPQIRERRQDI"
  soluble on expression in E. coli: "not soluble"

State the recorded soluble on expression in E. coli for this entry: MGSDKIHHHHHHMKPRKQDEKILSDQYSYFEPIISDSCDIKFDGDKRRIGSIFISHEEICFIRKEEDYIFKISLSDVVDYNTVVTIWKNQASLTLNDNRKITFYFVTNSPLTGFISILKTYMQLSRNKETIIPDDNLLINDDDEQTKVEIFDVVGLNYEGRRKELKKLIKKMKTNDAFFFLYSDLKGNELKEELLYEDKVYEIPDYEVIPGVFLQKEPDNPYDENAIKVMISNEYSEFHVGYVPREYASRLVNYIEDTVSCNAYINGGKYKTLDYLEEKIVTKESDYGLRIHVEYKV
not soluble

Name the recorded soluble on expression in E. coli for MSKIEIYNREEALLLIEKLNNSNIEIPILLMLTLGLRLGEATGLRWTDVDLNIGSVSVSQTLIYANNKIEFKEPKTSKSRRTLSAPDELIEKLKIEKLRQNKLKLQGILKNENNLVCLNKDYNPFLPATLRKSFHRFIKKNNLKNIRMHDLRHTNASLLLLGGTNMKVVSERLGHTDIQITMNRYSHVLEEMDKKASDNLSKILEHHHHHH .
not soluble

What value of soluble on expression in E. coli has been recorded for this entry: MGATGSSQLEKEISTTESVNNANEHYYGLVNALFFCRPFREKVLNYKQTLKKSGASKDNLVTCLADLFHSIASQKRRVGTIAPKRFITKLKKENELFDNYMQQDAHEFFNYLINTISETLIQEKIAEREKASRHGTLKKGNVTVNLAPATAGLPRSDEKGTSERNGGITVEGNEFLNKSDTTTWIHEIFQGILTNETRCLSCETVSSKDEDFLDLSIDVEQNTSISHCLRVFSETETLCGDQKYFCETCSSKQEAQKRMRIKKPPQLLALHLKRFKFVEPLNRHTKLSYRVVFPLELRLFNVSDDAEYGDRMYDLVATVVHCGATPNRGHYITLVKSNSFWLVFDDDIVEKLEVSSMEEFSGMSTDANIQMPPGNQSAPQKEFRICLYSVLSGKRLRC
not soluble

Any idea what its soluble on expression in E. coli is? The sequence is MAHHHHHHMSTYDKSDQIGYDETDHTLNAELEEMMARTPPEVQRHLQHRIHDGILQRMKEETTRKCITFIQKYEQCVNSQKPYNMKLCYPHRDAMNGCAQEVNREENYQRYRIMYLRGELLKYHEKRTAGKMEAFKVRAPDAIRAWKHDYAPKYMHIMEDLGVAPLGTAAGTAEESTNSK
not soluble
